We begin with a simple list: items and their reported Ki.
Molecular target: Muscarinic acetylcholine receptor M3 (Rattus norvegicus, UniProt P08483)
Sequence (P08483 whole entry): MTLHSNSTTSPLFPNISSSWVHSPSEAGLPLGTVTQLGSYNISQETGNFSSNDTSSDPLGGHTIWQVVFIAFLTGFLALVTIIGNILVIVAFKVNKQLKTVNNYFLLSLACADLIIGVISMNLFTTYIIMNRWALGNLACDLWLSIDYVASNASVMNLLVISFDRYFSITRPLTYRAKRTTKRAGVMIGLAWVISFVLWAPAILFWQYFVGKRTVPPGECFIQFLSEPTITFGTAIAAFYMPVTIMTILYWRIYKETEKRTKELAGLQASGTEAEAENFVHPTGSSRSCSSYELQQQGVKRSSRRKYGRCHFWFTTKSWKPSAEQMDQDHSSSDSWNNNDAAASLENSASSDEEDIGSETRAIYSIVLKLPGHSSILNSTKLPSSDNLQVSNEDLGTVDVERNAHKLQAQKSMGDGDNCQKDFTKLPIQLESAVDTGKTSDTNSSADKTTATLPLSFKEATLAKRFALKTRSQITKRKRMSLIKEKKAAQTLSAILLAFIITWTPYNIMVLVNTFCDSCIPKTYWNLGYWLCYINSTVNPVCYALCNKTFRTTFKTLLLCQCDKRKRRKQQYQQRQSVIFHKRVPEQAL
Answer in µM, number only, no unit symbol.

N=C(N)NC(=O)c1nc(Cl)c(N2CCCCCC2)nc1N 4.7

We next turn to a different compound, shown below.
Request: Give its Ki value. Item: NC(=NCc1ccccc1)NC(=O)c1nc(Cl)c(N)nc1N
Result: 2.8
